metric: melting point

Request: What value of measured melting point is listed for COC(=O)c1ccc(CN(C(C)C)S(=O)(=O)c2ccc(Cl)cc2)cc1 ?
Result: 110 to 112 °C

Request: What value of measured melting point is listed for CC[C@@H](c1ccccc1)N(Cc1ccc(C(=O)OC)cc1)S(=O)(=O)c1ccc(Cl)c(Cl)c1 ?
Result: 98 to 99 °C

Request: What value of measured melting point is listed for CCC(c1ccccn1)N(Cc1ccc(C(=O)OC)cc1)S(=O)(=O)c1ccc(F)cc1 (stereo not shown) ?
Result: 82 to 84 °C

Request: What value of measured melting point is listed for CC[C@@H](c1ccccc1)N(Cc1ccc(C(=O)OC)cc1)S(=O)(=O)c1ccc(F)c(F)c1 ?
Result: 103 to 105 °C

====

Please go through the items and note down their melting point.

Request: What value of measured melting point is listed for O=C(O)c1ccc(CN(C(CO)CO)S(=O)(=O)c2ccc(Cl)s2)cc1 ?
Result: 163 to 165 °C

Request: What value of measured melting point is listed for C[C@H](O)[C@H](CO)N(Cc1ccc(C(=O)O)cc1)S(=O)(=O)c1ccc(Cl)cc1 ?
Result: 182 to 184 °C

Request: What value of measured melting point is listed for COc1ccc(CN([C@@H](CO)c2ccccc2)S(=O)(=O)c2ccc(Cl)cc2)cc1C(=O)O ?
Result: 79 to 80 °C

Request: What value of measured melting point is listed for CCC(CC)N(Cc1ccc(C(=O)OC)cc1)S(=O)(=O)c1ccc(C)cc1 ?
Result: 106 to 108 °C

Request: What value of measured melting point is listed for CC[C@@H](c1ccccc1)N(Cc1cccc(C(=O)O)c1)S(=O)(=O)c1ccc(Cl)cc1 ?
Result: 65 to 67 °C

Request: What value of measured melting point is listed for COC(=O)c1cc(CN([C@@H](CO)c2ccccc2)S(=O)(=O)c2ccc(Cl)cc2)ccc1OC ?
Result: 60 to 62 °C

Request: What value of measured melting point is listed for CCC(CC)N(Cc1ccc(C(=O)O)cn1)S(=O)(=O)c1ccc(F)cc1 ?
Result: 145 to 147 °C

Request: What value of measured melting point is listed for CC[C@@H](c1ccccc1)N(Cc1ccc(C(=O)O)cc1OC)S(=O)(=O)c1ccc(Cl)cc1 ?
Result: 176 to 178 °C

====

Please go through the items and note down their melting point.

Request: What value of measured melting point is listed for CCC(CC)N(Cc1ccc(C(=O)OC)cc1)S(=O)(=O)c1ccc(Cl)cc1 [Example 40] ?
Result: 95 to 97 °C

Request: What value of measured melting point is listed for C[C@H](O)[C@H](CO)N(Cc1ccc(C#N)cc1F)S(=O)(=O)c1ccc(Cl)cc1 [Example 131] ?
Result: 112 to 114 °C

Request: What value of measured melting point is listed for CC[C@@H](c1ccccc1)N(Cc1ccc(C(=O)O)c(F)c1F)S(=O)(=O)c1ccc(Cl)cc1 [Example 127] ?
Result: 127 to 129 °C

Request: What value of measured melting point is listed for COC(=O)c1ccc(CN(C(CO)CO)S(=O)(=O)c2ccc(Cl)s2)cc1 [Example 42] ?
Result: 134 to 135 °C
